FYI, the data here is from patent US10538555B2.

Measured pIC50 accompanies every entry in the list below.
STUDY SYSTEM: Human PD-L1/PD-1 (Homo sapiens, UniProt Q9NZQ7)
Construct: TVMV protease cleavage site (C); made in house; host or cells: HEK293T cells
Sequence (Q9NZQ7 with tags, fused parts or gaps): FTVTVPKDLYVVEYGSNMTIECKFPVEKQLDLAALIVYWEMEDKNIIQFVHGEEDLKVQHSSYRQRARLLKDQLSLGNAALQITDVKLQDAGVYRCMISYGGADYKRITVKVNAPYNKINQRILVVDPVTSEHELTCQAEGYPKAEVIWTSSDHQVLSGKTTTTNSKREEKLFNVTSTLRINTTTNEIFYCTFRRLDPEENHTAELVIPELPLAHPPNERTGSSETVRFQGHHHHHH
MEASUREMENT DESCRIPTION: HTRF Human PD-L1/PD-1 binding assay (PD-1-Ig/PD-L1-His)
EXPERIMENTAL SETUP: PD-L1-His 10 nM, PD-1-Ig 20 nM; class symbol; read-out: HTRF Human PD-L1/PD-1 Binding Assay IC50 Range
pIC50: −log10 of the molar value. Where a SMILES comes first, the peptide text is derived from it. Bridges are numbered along the chain shown (N, C = ends). [ ]: non-standard residue; d: D form. Trp(βS-Me) = C[C@@H](c1c[nH]c2ccccc12)[C@H](N)C(=O)O; Hyp = O=C(O)[C@@H]1C[C@@H](O)CN1; NMeF = CN[C@@H](Cc1ccccc1)C(=O)O; NMeNle = CCCC[C@H](NC)C(=O)O; NMeA = CN[C@@H](C)C(=O)O; Dap = NC[C@H](N)C(=O)O; Sar = CNCC(=O)O

Guide cases for pIC50, answers given:
# COMPOUND, RECORDED RESULT
measured = [
    ("CCCC[C@H]1C(=O)N(C)[C@@H](CCCC)C(=O)N[C@@H](CCC(=O)O)C(=O)N[C@H](C(=O)NCC(N)=O)CSCC(=O)N[C@@H](Cc2ccc(O)cc2)C(=O)N(C)[C@@H](C)C(=O)N[C@@H](CC(N)=O)C(=O)N2CCC[C@H]2C(=O)N[C@@H](CN)C(=O)N[C@@H](CCC(=O)O)C(=O)N2C[C@H](O)C[C@H]2C(=O)N[C@@H](Cc2c[nH]c3ccccc23)C(=O)N[C@@H](CO)C(=O)N[C@@H](Cc2c[nH]c3ccccc23)C(=O)N1C [Example 5242] ({CH2CO}-Y[NMeA]NP[Dap]E[Hyp]WSW[NMeNle][NMeNle]ECG-NH2; thioether N-14)", "8.00 to 9.00"),
    ("CCCC[C@H]1C(=O)N(C)CC(=O)N[C@@H](CC(=O)O)C(=O)N[C@@H](C(C)C)C(=O)N(C)[C@@H](Cc2ccccc2)C(=O)N[C@@H](Cc2ccc(O)cc2)C(=O)N(C)CC(=O)NC(C)(Cc2c[nH]c3ccccc23)C(=O)N[C@@H](Cc2ccc(O)cc2)C(=O)N[C@@H](CC(C)C)C(=O)N[C@H](C(=O)NCC(N)=O)CSCC(=O)N[C@@H](Cc2ccccc2)C(=O)N(C)[C@@H](Cc2ccccc2)C(=O)N1C (single isomer, unassigned) [Example 3640-B]", "6.00 to 7.00"),
    ("CCCC[C@H]1C(=O)N(C)CC(=O)N[C@@H](CC(=O)O)C(=O)N[C@@H](C(C)C)C(=O)N(C)[C@@H](Cc2ccccc2)C(=O)N[C@@H](Cc2ccc(O)cc2)C(=O)N(C)CC(=O)N[C@@H]([C@@H](C)c2c[nH]c3ccccc23)C(=O)N[C@@H](Cc2ccc(O)cc2)C(=O)N[C@@H](CC(C)C)C(=O)N[C@H](C(=O)NCC(N)=O)CSCC(=O)N[C@@H](Cc2ccccc2)C(=O)N(C)[C@@H](Cc2ccccc2)C(=O)N1C [Example 10533] ({CH2CO}-F[NMeF][NMeNle][Sar]DV[NMeF]Y[Sar][Trp(βS-Me)]YLCG-NH2; thioether N-13)", "8.00 to 9.00"),
]

Kindly consider the entry below.
Query string: Reported pIC50, compound CCCC[C@H]1C(=O)N2CCC[C@@H]2C(=O)N[C@@H](CO)C(=O)N[C@@H](C(C)C)C(=O)N(C)[C@@H](Cc2ccccc2)C(=O)N[C@@H](Cc2ccc(O)cc2)C(=O)N(C)CC(=O)N[C@@H](Cc2c[nH]c3ccccc23)C(=O)N[C@@H](Cc2ccc(O)cc2)C(=O)N[C@@H](CC(C)C)C(=O)N[C@H](C(=O)NCC(N)=O)CSCC(=O)N[C@@H](Cc2ccccc2)C(=O)N(C)[C@@H](Cc2ccccc2)C(=O)N1C [Example 10062] ({CH2CO}-F[NMeF][NMeNle][dP]SV[NMeF]Y[Sar]WYLCG-NH2; thioether N-13) : ____
Result string: 7.00 to 8.00
